Entries below carry reported Ki on 11-beta-hydroxysteroid dehydrogenase 1 (Homo sapiens).
Sequence (P28845 whole entry): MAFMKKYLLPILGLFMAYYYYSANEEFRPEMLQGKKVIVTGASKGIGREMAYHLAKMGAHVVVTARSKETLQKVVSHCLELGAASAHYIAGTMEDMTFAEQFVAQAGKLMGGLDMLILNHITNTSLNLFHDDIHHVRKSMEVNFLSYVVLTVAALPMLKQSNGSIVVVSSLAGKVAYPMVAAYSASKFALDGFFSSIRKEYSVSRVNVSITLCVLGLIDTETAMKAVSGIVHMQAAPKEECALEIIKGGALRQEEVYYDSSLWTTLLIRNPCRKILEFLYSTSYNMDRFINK

Qu. Query (molecule): O=C(c1ccco1)N1CCC(n2c(=O)[nH]c3ccccc32)CC1 ; field requested: Ki
Ans. > 10 µM

Qu. Query (molecule): CC(C)(C)C(=O)N1CCC(n2c(=O)[nH]c3ccccc32)CC1 ; field requested: Ki
Ans. > 10 µM

Qu. Query (molecule): COc1cc(C(=O)N2CCC(n3c(=O)[nH]c4ccccc43)CC2)ccc1C ; field requested: Ki
Ans. 0.11 µM
